# Assay type: in vivo, human
# test.settings: human, plasma, iv, 50 mg, t½, arithmetic mean ± SD, 50 mg IV, single dose, fasted
endpoint.name: half-life (min)
Express your answer in min, writing the number without its unit.

Could you please provide reported half-life for CN1CC[C@@H](NC(=O)Nc2ccc(C#N)cc2)C[C@@H]1c1nc2ccccc2[nH]1 ? Thanks! 828

* * *

# Assay type: in vivo, human
# test.settings: human, plasma, po, 100 mg, AUC0‐∞, geometric mean (geometric CV, %), 100 mg oral tablet, single dose, fasted
endpoint.name: AUC (ng·h/mL)
Express your answer in ng·h/mL, writing the number without its unit.

Could you please provide reported AUC for CN1CC[C@@H](NC(=O)Nc2ccc(C#N)cc2)C[C@@H]1c1nc2ccccc2[nH]1 ? Thanks! 7630
